details: 328.15 K; 101.33 kPa; Liquid; Falling or rolling sphere viscometry
Metric Name: viscosity (mPa·s)
Numeric only. Scale: mPa·s

Examples from the recorded data:
> print(dat)
                                   molecule  metric.name  measurement.units  value.observed
1  CCC[NH3+].O=C[O-] [propylammonium formate]    viscosity              mPa·s           26.92
2  CC(=O)[O-].[NH3+]CCCO [3-hydroxypropylammonium acetate]    viscosity              mPa·s          400.11
3  O=C[O-].[NH3+]CCCO [3-hydroxypropylammonium formate]    viscosity              mPa·s           65.37
4  O=C([O-])C(F)(F)F.[NH3+]CCCO [3-hydroxypropylammonium trifluoroacetate]    viscosity              mPa·s          153.05

Switching to the query record.
Incoming: Which viscosity value is on record for CC(=O)[O-].CCC[NH3+] [propylammonium acetate] ?
Outgoing: 99.03

* * *

conditions: 318.15 K; 101.33 kPa; Liquid; Sing-around technique in a fixed-path interferometer
Metric Name: speed of sound (m/s)
Numeric only. Scale: m/s

Examples from the recorded data:
> print(dat)
                                   molecule  value.observed
1  O=C[O-].[NH3+]CCCO [3-hydroxypropylammonium formate]          1785.2
2  CC(=O)[O-].CCC[NH3+] [propylammonium acetate]          1467.8
3  CCC[NH3+].O=C[O-] [propylammonium formate]          1501.8
4  CC(=O)[O-].[NH3+]CCCO [3-hydroxypropylammonium acetate]          1736.4

Switching to the query record.
Incoming: Which speed of sound value is on record for O=C([O-])C(F)(F)F.[NH3+]CCCO [3-hydroxypropylammonium trifluoroacetate] ?
Outgoing: 1434.3

* * *

The entries below are paired with their reported mass density.
conditions: 328.15 K; 101.33 kPa; Liquid; Vibrating tube method
Numeric only. Scale: kg/m3

Examples from the recorded data:
> print(dat)
                                   compound   metric.name  value.observed
1  O=C([O-])C(F)(F)F.[NH3+]CCCO [3-hydroxypropylammonium trifluoroacetate]  mass density          1286.1
2  CC(=O)[O-].[NH3+]CCCO [3-hydroxypropylammonium acetate]  mass density         1096.68
3  O=C[O-].[NH3+]CCCO [3-hydroxypropylammonium formate]  mass density         1131.34
4  CCC[NH3+].O=C[O-] [propylammonium formate]  mass density          977.45

Incoming: Which mass density value is on record for CC(=O)[O-].CCC[NH3+] [propylammonium acetate] ?
Outgoing: 968.4

* * *

settings: 303.15 K; 101.33 kPa; Liquid; Sing-around technique in a fixed-path interferometer
Metric Name: speed of sound (m/s)
Numeric only. Scale: m/s

Examples from the recorded data:
> print(dat)
                                   molecule     metric.name  value.observed
1  CCC[NH3+].O=C[O-] [propylammonium formate]  speed of sound          1532.4
2  CC(=O)[O-].CCC[NH3+] [propylammonium acetate]  speed of sound          1497.1
3  O=C[O-].[NH3+]CCCO [3-hydroxypropylammonium formate]  speed of sound          1808.3
4  CC(=O)[O-].[NH3+]CCCO [3-hydroxypropylammonium acetate]  speed of sound          1761.9

Incoming: Which speed of sound value is on record for O=C([O-])C(F)(F)F.[NH3+]CCCO [3-hydroxypropylammonium trifluoroacetate] ?
Outgoing: 1465.5

Attribution: the NIST ThermoML archive (doi:10.1016/j.jct.2014.01.004)
